Listing: melting point of selected compounds

In: Could you tell me which melting point is on file for CCc1ccc2nc(N3C(=O)C(O)=C(C(=O)c4ccc(C)o4)C3c3ccc(Cl)c(Cl)c3)sc2c1 (stereo not drawn) ?
Out: 197 to 201 °C

* * *

value kind: melting point

Some entries whose results are on file:
compound	melting point
O=C(C1=C(O)C(=O)N(c2nc3ccc(Cl)cc3s2)C1c1ccccc1F)C1CC2C=CC1C2 (stereo not shown)	205 to 206 °C
CCCCCC1C(C(=O)c2ccc(C)o2)=C(O)C(=O)N1c1nc2ccc(S(C)(=O)=O)cc2s1 (stereo not shown)	171 to 173 °C
Cc1ccc(C(=O)C2=C(O)C(=O)N(c3nc4ccc(Cl)cc4s3)C2c2ccc(-c3ccccc3)cc2)o1 (stereo not shown)	244 to 245 °C

// next entry
In: Could you tell me which melting point is on file for CCOC(=O)CCC(=O)C1=C(O)C(=O)N(c2nc3ccc(Cl)cc3s2)C1c1ccc(Cl)cc1 (stereo not shown) ?
Out: 244 to 245 °C
